Record form. Attribute: Kd. Fill in for each entry.
- Target Or System: MLKL (full length) (Homo sapiens (Human), UniProt Q8NB16)
- Sequence (Q8NB16 whole entry): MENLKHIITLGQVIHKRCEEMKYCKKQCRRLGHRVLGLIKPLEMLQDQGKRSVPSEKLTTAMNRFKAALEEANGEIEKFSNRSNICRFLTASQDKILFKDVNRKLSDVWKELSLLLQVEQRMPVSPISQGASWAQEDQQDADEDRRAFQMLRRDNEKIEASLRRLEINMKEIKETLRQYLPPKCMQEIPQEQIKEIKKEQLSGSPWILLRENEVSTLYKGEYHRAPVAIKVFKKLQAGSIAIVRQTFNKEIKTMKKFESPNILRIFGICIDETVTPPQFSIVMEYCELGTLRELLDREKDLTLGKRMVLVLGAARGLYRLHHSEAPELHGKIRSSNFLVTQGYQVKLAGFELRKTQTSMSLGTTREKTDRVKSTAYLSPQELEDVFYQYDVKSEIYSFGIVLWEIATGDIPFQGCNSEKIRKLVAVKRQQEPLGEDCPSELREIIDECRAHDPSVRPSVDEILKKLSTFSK
- Experimental Details: KINOMEscan binding assay, MLKL (full length)
- Condition Context: Table 35

Kd recorded for this molecule, C[C@H](Oc1cc(-c2n[nH]c(Nc3ccc(C4CCOCC4)cn3)c2C(N)=O)ccc1NS(=O)(=O)C(F)F)c1ccc(F)cc1 , is < 10 nM

Kd recorded for this molecule, Cc1nccc(Nc2[nH]nc(-c3ccc(NS(=O)(=O)C(F)F)c(O[C@@H](C)c4ccc(F)cc4)c3)c2C(N)=O)n1 , is < 10 nM

Kd recorded for this molecule, CCC(Oc1cc(-c2n[nH]c(Nc3cnccn3)c2C(N)=O)ccc1NS(=O)(=O)C(F)F)c1ccc(F)cc1 (racemic) , is < 10 nM

Kd recorded for this molecule, Cc1cnc(Nc2[nH]nc(-c3ccc(NS(=O)(=O)C(F)F)c(OC4(c5ccc(F)cc5)CC4)c3)c2C(N)=O)cn1 , is < 10 nM

Kd recorded for this molecule, CCS(=O)(=O)Nc1ccc(-c2n[nH]c(Nc3cnccn3)c2C(N)=O)cc1OCCc1ccccc1 , is < 10 nM

Kd recorded for this molecule, CCS(=O)(=O)Nc1ccc(-c2n[nH]c(Nc3ccccn3)c2C(N)=O)c(OCc2ccc(F)cc2)c1 , is < 10 nM

Kd recorded for this molecule, NC(=O)c1c(-c2ccc(NS(=O)(=O)CC(F)(F)F)c(OCc3ccc(F)cc3)c2)n[nH]c1Nc1ccc(C(F)(F)F)nc1 , is < 10 nM

Kd recorded for this molecule, CCS(=O)(=O)Nc1ccc(-c2n[nH]c(Nc3ccccn3)c2C(N)=O)cc1OCc1ccc(Cl)cc1 , is < 10 nM

Kd recorded for this molecule, C[C@H](Oc1cc(-c2n[nH]c(Nc3cc(C(F)F)on3)c2C(N)=O)ccc1NS(=O)(=O)C(F)F)c1ccc(F)cc1 , is < 10 nM

Kd recorded for this molecule, NC(=O)c1c(-c2ccc(NS(=O)(=O)CC(F)(F)F)c(OCc3ccc(Cl)cc3)c2)n[nH]c1Nc1cnc(C(F)(F)F)cn1 , is < 10 nM

Kd recorded for this molecule, C[C@H](Oc1cc(-c2n[nH]c(Nc3cccc(C(F)(F)F)n3)c2C(N)=O)ccc1NS(=O)(=O)C(F)F)c1ccc(F)cc1 , is < 10 nM

Kd recorded for this molecule, Cc1cnc(Nc2[nH]nc(-c3ccc(NS(=O)(=O)CC(F)(F)F)c(OCc4ccc(Cl)c(F)c4)c3)c2C(N)=O)cn1 , is < 10 nM

Kd recorded for this molecule, NC(=O)c1c(-c2ccc(NS(=O)(=O)CC(F)(F)F)c(OCc3ccc(F)cn3)c2)n[nH]c1Nc1cnccn1 , is < 10 nM

* * *

Record form. Attribute: Kd. Fill in for each entry.
- Target Or System: MLKL (full length) (Homo sapiens (Human))
- Experimental Details: KINOMEscan binding assay, MLKL (full length)
- Condition Context: Table 36

Kd recorded for this molecule, CCS(=O)(=O)Nc1ccc(-c2n[nH]c(Nc3ccnc(OCCCCCCCCCCCCCC(=O)N[C@H](C(=O)N4C[C@H](O)C[C@H]4C(=O)NCc4ccc(-c5scnc5C)cc4)C(C)(C)C)c3)c2C(N)=O)cc1 , is 0.01 to 1 µM

Kd recorded for this molecule, Cc1ncsc1-c1ccc(CNC(=O)[C@@H]2C[C@@H](O)CN2C(=O)[C@@H](NC(=O)CCCCOC(=O)c2ccc(Nc3[nH]nc(-c4ccc(NS(=O)(=O)C(F)F)c(F)c4)c3C(N)=O)nc2)C(C)(C)C)cc1 , is < 0.01 µM

* * *

Record form. Attribute: pKd. Fill in for each entry.
- Target Or System: UniProtKB Q8NB16
- Experimental Details: KINOMEscan binding assay, MLKL (full length)
- Condition Context: Table 35
pKd: −log10 of the molar value.

pKd recorded for this compound, NC(=O)c1c(-c2ccc(NS(=O)(=O)CCC(F)(F)F)cc2)n[nH]c1Nc1cccc(C(F)(F)F)n1 , is > 8.00

pKd recorded for this compound, CCS(=O)(=O)Nc1ccc(-c2n[nH]c(Nc3ccnc(C(F)(F)F)n3)c2C(N)=O)cc1OCc1ccc(F)cc1 , is > 8.00

pKd recorded for this compound, NC(=O)c1c(-c2ccc(NS(=O)(=O)C(F)F)c(OCc3ccc(F)c(F)c3)c2)n[nH]c1Nc1ccccn1 , is > 8.00

pKd recorded for this compound, NC(=O)c1c(-c2ccc(NS(=O)(=O)C(F)F)c(OCc3ccc(F)c(F)c3)c2)n[nH]c1Nc1cccc(C(F)(F)F)n1 , is > 8.00

* * *

- Target Or System: MLKL (full length) (Homo sapiens (Human), UniProt Q8NB16)
- Experimental Details: KINOMEscan binding assay, MLKL (full length)
- Condition Context: Table 35
pKd: −log10 of the molar value.
Endpoint: pKd

pKd recorded for this compound, CC(C)S(=O)(=O)Nc1ccc(-c2n[nH]c(Nc3cccc(C(F)(F)F)n3)c2C(N)=O)cc1 , is > 8.00

pKd recorded for this compound, COCCOc1cc(Nc2[nH]nc(-c3ccc(NS(=O)(=O)CC#N)cc3)c2C(N)=O)ccn1 , is > 8.00

pKd recorded for this compound, CCS(=O)(=O)Nc1ccc(-c2n[nH]c(Nc3cncc(OC)n3)c2C(N)=O)cc1OCc1ccc(F)cc1 , is > 8.00

pKd recorded for this compound, CCS(=O)(=O)Nc1ccc(-c2n[nH]c(Nc3cnc(OC)cn3)c2C(N)=O)cc1 , is > 8.00

pKd recorded for this compound, Cc1cnc(Nc2[nH]nc(-c3ccc(NS(=O)(=O)CCC(F)(F)F)c(OCc4ccc(F)cc4)c3)c2C(N)=O)cn1 , is > 8.00

pKd recorded for this compound, CCS(=O)(=O)Nc1ccc(-c2n[nH]c(Nc3cc(C(F)(F)F)ccn3)c2C(N)=O)cc1OCc1ccc(F)cc1 , is 6.00 to 8.00

pKd recorded for this compound, CCS(=O)(=O)Nc1ccc(-c2n[nH]c(Nc3ccccn3)c2C(N)=O)cc1OCc1ccc(F)cn1 , is > 8.00

pKd recorded for this compound, CCS(=O)(=O)Nc1ccc(-c2n[nH]c(Nc3cnccn3)c2C(N)=O)cc1 , is > 8.00

pKd recorded for this compound, NC(=O)c1c(-c2ccc(NS(=O)(=O)CC(F)(F)F)c(OCc3ccc(Cl)cn3)c2)n[nH]c1Nc1cnccn1 , is > 8.00

pKd recorded for this compound, CCS(=O)(=O)Nc1ccc(-c2n[nH]c(Nc3cccc(OC)n3)c2C(N)=O)cc1OCc1ccc(F)cc1 , is > 8.00

pKd recorded for this compound, CCS(=O)(=O)Nc1ccc(-c2n[nH]c(Nc3cnccn3)c2C(N)=O)cc1OCc1cccnc1 , is > 8.00

pKd recorded for this compound, CCS(=O)(=O)Nc1ccc(-c2n[nH]c(Nc3cc(C)on3)c2C(N)=O)cc1O[C@@H](C)c1ccc(F)cc1 , is > 8.00

pKd recorded for this compound, NC(=O)c1c(-c2ccc(NS(=O)(=O)C(F)F)c(OCc3ccc(F)cc3)c2)n[nH]c1Nc1ccc(C(F)(F)F)nc1 , is > 8.00

pKd recorded for this compound, C[C@H](Oc1cc(-c2n[nH]c(Nc3cccc(C(F)(F)F)n3)c2C(N)=O)ccc1NS(=O)(=O)CC(F)(F)F)c1ccc(F)cc1 , is > 8.00

pKd recorded for this compound, CCS(=O)(=O)Nc1ccc(-c2n[nH]c(Nc3ccccn3)c2C(N)=O)cc1OCc1cccc(Cl)c1 , is > 8.00

pKd recorded for this compound, COc1cnc(Nc2[nH]nc(-c3ccc(NS(=O)(=O)CC(F)(F)F)c(OCc4ccc(F)cc4)c3)c2C(N)=O)cn1 , is > 8.00

pKd recorded for this compound, Cc1cnc(Nc2[nH]nc(-c3ccc(NS(=O)(=O)CC(F)(F)F)c(OCc4ccc(F)cc4)c3)c2C(N)=O)cn1 , is > 8.00

pKd recorded for this compound, CCS(=O)(=O)Nc1ccc(-c2n[nH]c(Nc3cnccn3)c2C(N)=O)cc1O[C@@H](C)c1ccccn1 , is > 8.00

pKd recorded for this compound, CCS(=O)(=O)Nc1ccc(-c2n[nH]c(Nc3cnccn3)c2C(N)=O)cc1O[C@H](C)c1ccc(F)cc1 , is > 8.00

pKd recorded for this compound, Cc1cnc(Nc2[nH]nc(-c3ccc(NS(=O)(=O)C(F)F)c(OCc4ccc(F)c(F)c4)c3)c2C(N)=O)cn1 , is > 8.00

pKd recorded for this compound, CCS(=O)(=O)Nc1ccc(-c2n[nH]c(Nc3cnccn3)c2C(N)=O)cc1OCC1CCCC1 , is > 8.00

pKd recorded for this compound, NC(=O)c1c(-c2ccc(NS(=O)(=O)CC(F)(F)F)c(OCc3ccc(F)cc3)c2)n[nH]c1Nc1cccc(C(F)F)n1 , is > 8.00

pKd recorded for this compound, Cc1cnc(Nc2[nH]nc(-c3ccc(NS(=O)(=O)CC(F)(F)F)c(OCc4ccc(F)c(Cl)c4)c3)c2C(N)=O)cn1 , is > 8.00

pKd recorded for this compound, C[C@H](Oc1cc(-c2n[nH]c(Nc3cc4n(n3)CCCN(C)C4)c2C(N)=O)ccc1NS(=O)(=O)C(F)F)c1ccc(F)cc1 , is > 8.00

pKd recorded for this compound, C[C@H](Oc1cc(-c2n[nH]c(Nc3cc(C4CCOCC4)ccn3)c2C(N)=O)ccc1NS(=O)(=O)C(F)F)c1ccc(F)cc1 , is > 8.00

pKd recorded for this compound, NC(=O)c1c(-c2ccc(NS(=O)(=O)CC(F)(F)F)c(OC(c3ccc(F)cc3)C3CCC3)c2)n[nH]c1Nc1cnccn1 (stereo not shown) , is > 8.00

pKd recorded for this compound, COCC(Oc1cc(-c2n[nH]c(Nc3cnccn3)c2C(N)=O)ccc1NS(=O)(=O)C(F)F)c1ccc(F)cc1 (stereo not shown) , is > 8.00

pKd recorded for this compound, CCS(=O)(=O)Nc1ccc(-c2n[nH]c(Nc3cnccn3)c2C(N)=O)cc1OCc1cccc(F)c1 , is > 8.00
